# Target System: T1, DDX21(574-783) (Homo sapiens, UniProt Q9NR30 574-783)
# T1 sequence: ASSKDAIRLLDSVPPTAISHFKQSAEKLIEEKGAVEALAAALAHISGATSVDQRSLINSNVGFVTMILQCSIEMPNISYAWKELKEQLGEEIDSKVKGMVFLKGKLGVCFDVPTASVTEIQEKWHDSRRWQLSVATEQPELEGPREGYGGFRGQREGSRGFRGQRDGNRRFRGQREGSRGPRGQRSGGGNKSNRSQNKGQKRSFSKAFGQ
# Test Protocol: MST
Attribute Measured: Kd
Answers without a unit are incomplete; give the number and then its unit.

Returns the measured Kd for the input binder. Input: AGGGUGGGCCUGGGAGGGGUGGUGGCCAU (structured_RNA) [hTR(10-43)]
149 nM
